conditions: female, cynomolgus monkey, in vivo, po, 0.4 mmol/kg
The molecules listed here are annotated with their Cmax.
State the answer as a number, implicitly in µM.

| MOLECULE | VALUE TYPE | READOUT UNIT | REPORTED RESULT |
| --- | --- | --- | --- |
| O=c1nc(NO)ccn1C1OC(CO)C(O)C1O (centres unmarked) | Cmax | µM | 3.31 |

Please find the next molecule below.
Need Cmax of CC(C)C(=O)OC[C@H]1O[C@@H](n2ccc(NO)nc2=O)[C@H](O)[C@@H]1O , thanks.
12.3

* * *

The compounds listed here are annotated with their Cmax.
conditions: male, cynomolgus monkey, in vivo, po, 0.4 mmol/kg
State the answer as a number, implicitly in µM.

| COMPOUND | REPORTED RESULT |
| --- | --- |
| CC(C)C(=O)OC[C@H]1O[C@@H](n2ccc(NO)nc2=O)[C@H](O)[C@@H]1O | 8.08 |

Please find the next compound below.
Need Cmax of O=c1nc(NO)ccn1C1OC(CO)C(O)C1O (centres unmarked) , thanks.
3.31

* * *

system: MERS; experiment: microbe, parasite or virus in culture; assay type: cell-based, MERS coronavirus; conditions: Middle East respiratory syndrome-related coronavirus, Vero C1008
VALUE TYPE: EC50

Need EC50 of O=c1nc(NO)ccn1C1OC(CO)C(O)C1O (stereo not shown) [EIDD-1931] , thanks.
< 800 nM

* * *

assay: in vivo; settings: female, DBA-1J, mouse, po, 100 mg/kg
VALUE TYPE: Cmax (ng/mL)
State the answer as a number, implicitly in ng/mL.

Need Cmax of O=c1nc(NO)ccn1C1OC(CO)C(O)C1O (stereo not shown) , thanks.
7700

* * *

test system: HRV-14; test: microbe, parasite or virus in culture; assay type: cell-based
VALUE TYPE: pEC50
Quick note: pEC50 means taking -log10 of the concentration in moles per liter.

Need pEC50 of O=c1nc(NO)ccn1C1OC(CO)C(O)C1O (stereo not shown) [EIDD-1931] , thanks.
5.87

* * *

experiment: in vitro; conditions: monkey, microsomes
VALUE TYPE: half-life
Kindly write the number and append the unit.

| MOLECULE | half-life |
| --- | --- |
| CC(C)C(=O)OC[C@H]1O[C@@H](n2ccc(NO)nc2=O)[C@H](O)[C@@H]1O [EIDD-2801] | 1 min |

Need half-life of CC(C)C(=O)OC[C@H]1O[C@@H](n2ccc(NO)nc2=O)[C@H](OC(=O)C(C)C)[C@@H]1OC(=O)C(C)C [EIDD-2800] , thanks.
2 min

* * *

assay: in vitro; details: dog, microsomes
VALUE TYPE: half-life

Need half-life of CC(C)C(=O)OC[C@H]1O[C@@H](n2ccc(NO)nc2=O)[C@H](O)[C@@H]1O [EIDD-2801] , thanks.
1 min

* * *

assay: in vivo; details: female, DBA-1J, mouse, po, 300 mg/kg
VALUE TYPE: tmax

Need tmax of O=c1nc(NO)ccn1C1OC(CO)C(O)C1O (stereo not shown) [EIDD-1931] , thanks.
15 to 30 min

* * *

test: Cytotoxicity (CC50) run with antiviral assays, HeLa-Ohio cells; details: human
VALUE TYPE: CC50

Need CC50 of O=c1nc(NO)ccn1C1OC(CO)C(O)C1O (stereo not shown) [EIDD-1931] , thanks.
> 40 µM

* * *

assay: Cytotoxicity (CC50) run with antiviral assays, BHK cells; type: cell-based; conditions: hamster, Flaviviridae table
VALUE TYPE: CC50
Kindly write the number and append the unit.

Need CC50 of O=c1nc(NO)ccn1C1OC(CO)C(O)C1O (stereo not shown) [EIDD-1931] , thanks.
30 µM

* * *

system: Flu B; assay: microbe, parasite or virus in culture; type: cell-based; details: Influenza B virus, MDCK
pEC50: −log10 of the molar value.
VALUE TYPE: pEC50

Need pEC50 of O=c1nc(NO)ccn1C1OC(CO)C(O)C1O (stereo not shown) , thanks.
> 6.40

* * *

test system: Flu A H3N2; assay: microbe, parasite or virus in culture; type: cell-based, influenza A virus; conditions: Influenza A virus, H3N2, MDCK
VALUE TYPE: pEC50
Quick note: pEC50 means taking -log10 of the concentration in moles per liter.

Need pEC50 of O=c1nc(NO)ccn1C1OC(CO)C(O)C1O (stereo not shown) , thanks.
6.02
